This collection of values is drawn from patent US20130184251A1.

System: HeLa cells
EXPERIMENTAL PROTOCOL: 2-AG accumulation assay using HeLa cells
Type: cell-based
DETAILS: Homo sapiens; HeLa cell homogenate, 2-AG accumulation relative to MAFP; compound @10 μM as printed (first of two columns with the same head); read-out: Ex. 5 % MAFP @10 μM (first column)
Emax at 10 µM overview
# do not omit the unit; it follows the number

Some solved cases for reference:
1. O=C(c1ccc(Cc2ccccc2)cc1)N1CC(N2CCN(c3ccccn3)CC2)C1 | 34.7%
2. O=C(c1ccc(C2CCCCC2)cc1)N1CC(N2CCN(c3noc4ccccc34)CC2)C1 | 17.5%
3. O=C(c1ccc(-c2ccccc2)cc1)N1CC(N2CCN(c3ncccn3)CC2)C1 | 63.1%
4. O=C1c2ccccc2-c2ccc(C(=O)N3CC(N4CCN(c5ccccn5)CC4)C3)cc21 | 10.2%

Turning now to a further record.
Ask: Item: "O=C(c1cccc(-c2ccc(F)cc2)c1)N1CC(N2CCN(c3ccccn3)CC2)C1" Test system: HeLa cells Read-out: Emax at 10 µM Value: ?
Reply: 28%

----------
Test system: HeLa cells
EXPERIMENTAL PROTOCOL: 2-AG accumulation assay using HeLa cells
Format: cell-based
DETAILS: Homo sapiens; HeLa cell homogenate, 2-AG accumulation relative to MAFP; compound @10 μM as printed (first of two columns with the same head); read-out: Ex. 5 % MAFP @10 μM (first column)
Reported Emax at 10 µM values for a set of compounds
Reply numerically in %, unit not repeated.

Examples from the recorded data:
1. O=C(c1ccc(C2CCCCC2)cc1)N1CC(N2CCN(c3nccs3)CC2)C1 | 24.3
2. O=C(c1ccc(-c2ccccc2)c(F)c1)N1CC(N2CCN(c3ccccn3)CC2)C1 | 28.2

Here is the next item to consider.
Ask: I would be grateful if you could share the reported Emax at 10 µM for "O=C(Nc1ccc(C(=O)N2CC(N3CCN(c4ccccn4)CC3)C2)cc1)C1CCCCC1" .
Reply: 66.2
